Origin of values: a protein production outcome set (Wang et al. 2014)

- ASSAY: label from the status in PepcDB records

SEQUENCE CODE	protein production
MSLAQYPVIGIDDDEFATAKKLITKQEVRAVTLSKLRLQDDLVMWDIGAGSASVSIEASNLMPNGRIFALERNPQYLGFIRDNLKKFVARNVTLVEAFAPEGLDDLPDPDRVFIGGSGGMLEEIIDAVDRRLKSEGVIVLNAVTLDTLTKAVEFLEDHGYMVEVACVNVAKTKGLTEYKMFESHNPVYIITAWKSDEGHHHHHH	not failed
PPLEINSRVSLKVGETIESGTVIFCDVLPGKESLGYFVGVDMDNPIGNWDGRFDGVQLCSFACVESTILLHINDIIPES	not failed

---

- ASSAY: label from the status in PepcDB records
PROPERTY MEASURED: protein production

Solved cases (6 shown):
SEQUENCE CODE	RESULT VALUE
MQAALEVTARYCGRELEQYGQCVAAKPESWQRDCHYLKMSIAQCTSSHPIIRQIRQACAQPFEAFEECLRQNEAAVGNCAEHMRRFLQCAEQVQPPRSPATVEAQPLPAS	failed
MRKVSISILFMLVSLTWGTTWLAMRIAVETIPPVFATGMRFMFAAPFLIIIAWLRKKTLLFPPGQRLFQFVICIFYFSIPFSLMIYGETYVNSGLAAIIFANMPVAVLIASVLFLNEKAKLMQIAGLTIAITALTGILLEEANTSTESHWQGITALISAVLIHAIIYTQCKKRSCTVSVITFNALPCLLAGLILSATGWFFERPQVSTFSVHSILATLYLGAFAGVFGILCYFALQQKANAFQASLVFLIFPLIAVSLEDYIYGYAISTHSMLLIIPLAIGIFLTLVARNIPVTSRCRDNSSQE	failed
MSVAGLKKQFHKASQLFSEKISGAEGTKLDDEFLDMERKIDVTNKVVAEILSKTTEYLQPNPAYRAKLGMLNTVSKIRGQVKTTGYPQTEGLLGDCMLKYGKELGEDSTFGNALIEVGESMKLMAEVKDSLDINVKQTFIDPLQLLQDKDLKEIGHHLKKLEGRRLDYDYKKKRVGKIPDEEVRQAVEKFEESKELAERSMFNFLENDVEQVSQLAVFIEAALDYHRQSTEILQELQSKLQMRISAASSVPRREYKPRPVKRSSSELNGVSTTSVVKTTGSNIPMDQPCCRGLYDFEPENQGELGFKEGDIITLTNQIDENWYEGMIHGESGFFPINYVEVIVPLPQ	failed
PLKEQKVINTANITTNSKLDLAEYENGLMNIAKEQFDTENHVLQLNQYIPEKLVDELVAKVKAPVLTNIIEQDYFGKQNSNELSLSGVMIGLAMSSSVSNEEAMSKGTEVANQLIEAIHKNDKYNKSPITFAIFKQESTSSLKNGTYIASATVQKNDTNIGNWNAIEEKAYSYPSDEFTQAHGEDNTKIDDFAKEMKGFSPGDFIPVNAKVSYKKNQMDTLNMNIVIKYNGKTELMALTQLAAQIMLEQLPKDAKVQLQIKSENKIEAIVIKEKNSDKPFV	not failed
MAVTDVFARRATLRRSLRLLADFRYEQRDPARFYRTLAADTAAMIGDLWLATHSEPPVGRTLLDVGGGPGYFATAFSDAGVGYIGVEPDPDEMHAAGPAFTGRPGMFVRASGMALPLADDSVDICLSSNVAEHVPRPWQLGTEMLRVTKPGGLVVLSYTVWLGPFGGHEMGLSHYLGGARAAARYVRKHGHPAKNNYGSSLFAVSAAEGLRWAAGTGAALAVFPRYHPRWAWWLTSVPVLREFLVSNLVLVLTP	failed
MSGLAQRSDDPWLAALPAAVLYGAWAAYANQDGGLAGMGVAALLQGAASLLATRFGLYLLQCLGRRHGLAQRQAPLLVVLLLTAPMAALHWLSGTPHPLASVAPSFVIGWLYFALWARRRPGRRQASGA	failed

Entry under test: `MHGVEFAPLERQHGSQVLALLRGTLLVPLPRLHQRLEEAYERDARLGLAQVALCRLAGNAEKVVGVLLARVATRRTCCAQVYIDAVAVDAVFQGQGIGSRLLLRVLTPCLPDGLEVREVFLHTPLQATELVAFYRSCGFESDDEVIDNYYPRRWMPQAQALVLRWRPPTAAQHQHEERKGPQDADVS` . Its protein production was not failed

Entry under test: `GVSVSPDETMLAFGEDVLSRRVYNIYFKDIESGAMITDVLENTEGRIVWGNDNRHVFYIAKDLQTLLGNRVYRHELGTPQSRDVLVYEEQDDAYYISLGKSLDESQIVLFHESTTTSEVSVLDANDPLSLFKPVLAREEGHEYSVSKLGDSYYVLTNWQATNFRLMKVAIKDAADKSKWQEVVAHNPNARLEDELVLKDYLIIQTRENGLTRIKVMPFNGQKPFELSFDEPAYVLGLDVNA` . Its protein production was failed

Entry under test: `MISPELVKEALKKKKVRSEEAFGLEYLRFNDDYKDIPRGTAIFKDFIIWGYPHIGRIFLLETGLREQFEAPFWVEEKVDGYNTRIFKYGDNYYALSRGGFICPFTTDRLPDLIDLRILDENPDLVICAEVAGPENPYIEESPPYVKEDVQLFVFDFMKKNEQGFLSQEEKMELIEKYNLPHVEILGRFTASEEGIKKIKEILKRFNEEGREGVVFKEDSERNKRAKYITSYANLMDIKTNAKNMLQLPPEYYTNRILRLVLFMYEEGLKTTEHLYEELGRAFIDGLFQAIEQFEKEHKVYKTFTCKFRKKENAIALLELLSKTSKHIQVKERRLEKEGDYWRLEFDKVFLNMTGLLGHLLSGGIVYD` . Its protein production was not failed

Entry under test: `TINSKFQSDVSAALKKYMGTDLTTGGYAAVMNPKTGGVYAMAGWDRNVKTGKLTQNDLAAIQDPIVMGSAVKPAMVSMALQAGVITPTSSTQDDQIIKLAGTAEKHSDFNPTGVKIPLTAEQALEDSSNTYMIQLALKMNGTPYVSGMSLNVSSNIWQKMRNGFGEFGLGSRTGIDLPGETAGYKGSITGSLASSFIDEAFGQYDTYSVIQMARFVSTIANGGYLVQPKVVASVLKSGKNGVRSSVASEVSPTIQGYVKMNNAQWNVIKTGMWDVANGSSQYNTGGTLIHELSPKVAAKTGTAESFVDGQQTQNDTLIMYSPYAPFAIAIAYVGDKVDSFGAVEKAAAAIYNAFWKDVMPKPND` . Its protein production was failed

Entry under test: `MELRDRIDFLCKTILAIKTAGRLVLGIDGLSRSGKTTLANQLSQTLREQGISVCVFHMDDHIVERAKRYHTGNEEWFEYYYLQWDVEWLTHQLFRQLKASHQLTLPFYDHETDTHSKRTVYLSDSDMIMIEGVFLQRKEWRPFFDFVVYLDCPREIRFARENDQVKQNIQKFINRYWKAEDYYLETEEPIKRADVVFDMTS` . Its protein production was not failed

Entry under test: `MQITIKVLKGKDCTIEVAPTSTILEVKHQIEAELQISATNQKLLLLGRPLNNEQTIASYPNIKEGTKLNLVVIKP` . Its protein production was failed

---

- ASSAY: label from the status in PepcDB records
PROPERTY MEASURED: protein production

SEQUENCE CODE	PROPERTY MEASURED	RESULT VALUE
MGTTEKSGIKEIIIQGLTRAGKPFRPSDWVDRMCSTYASFGADRKLRYSPYLKPRVIEGVRCLAVDLKLKDTNPEGFNQLMHFATENQLNILDAEGNSIDAAQVTEI	protein production	not failed
MAIHVGIIDQDPVRLVTPLLDHRTVSRHIIFIGDHTQTVIYQRLSDVLNKRNISTDFFEIPAGSNTSAIKSAIRELAETLKARGEEVKFNASCGLRHRLLSAYEVFRSYHWPIFVVEPNSDCLCWLYPEGNNDTQVQDRITIADYLTIFGARGEFNEHQLSPQLDQQLYQLGERWASNALELGPGLATLNYLATTCRKEQKLDVELSDKQQGYRELNLLLSDLVEAKIASYENGILTFINEEARRFANGEWLETLVHSTVKQIQDDMPTIQDRSLNVQVYRQLGEREVRNELDVATVVNNKLHIIECKTKGMRDDGDDTLYKLESLRDLLGGLQARAMLVSFRPLRHNDITRAEDLGLALIGPDELKDLKTHLTQWFKAAGGN	protein production	not failed

---

- ASSAY: label from the status in PepcDB records
PROPERTY MEASURED: protein production

SEQUENCE CODE	PROPERTY MEASURED	RESULT VALUE
MEKADIEAIFARSRFISAMNLEILDIDHAGSRFSVRMPLQDTYERGAPGTKQFHGGALAALIDVVGDFAIGMLVGGGVPTMNLRIDYLRPAVGDYVDGVAVVRKAGKSAAVVDIDILCPAGKLVAIGRGTYVPITGLEHHHHHH	protein production	failed
MIANNIIPIIFLLIIVYGMFKGRKVYEWFLEGAKEGLMVCVKIFPALLAMMIAIRIFKDANLLNYLNNLLEPIVSLIGLPKDIVPLVLIKPLSGSGALGVYTELINTLGPDTREGLISSVIMGGTETIFYTITVYFGAVGIKKIRHTFWAALMADITAIIMAVLVVSMFFGL	protein production	failed
MKTASYAQSFSRAAKEYDAYAYLQQTVARELASWIEGMECESILDLGCGTGALWRALRFKPRFFTGVDLSMEMLDLHPQDPAIRLIQSDFNHPSLYEHSYDLIAASSSLQWSRDLAQSFDLIAKSAQNVAFAIFTSESLWEIHDYVDSHSPIPSKERIESLLKERFAGEFELKRYPLSFPSRVAMLSYLKGSGISGGRRLGFAQSK	protein production	failed
